# studyTarget: recombinant SARS-CoV-2 Main protease (Mpro) (Severe acute respiratory syndrome coronavirus 2 (2019-nCoV) (SARS-CoV-2))
# measurementDescription: Cov Mpro Biochemical IC50 Assay
# experimentalSetup: recombinant SARS-CoV-2 Mpro 7.5 nM, fluorogenic peptide substrate 40 μM; read-out: MPro IC50
assayReadout: IC50

Worked examples, 2 compounds total:
{"compound": "COc1cnc(Cl)c(-c2cc3c(s2)c(=O)n(-c2cncc4cnn(C)c24)c(=O)n3CCC#N)c1 (single isomer, unassigned) [Example 1090]", "assayReadout": "IC50", "assayValue": "1.5 nM"}
{"compound": "COc1cc(-c2cc3c(s2)c(=O)n(-c2cncc4cccc(Cl)c24)c(=O)n3CCC#N)c(Cl)cc1F [Example 921]", "assayReadout": "IC50", "assayValue": "1.42 nM"}

# map each compound to its IC50
1. COc1cc(-c2cc3c(s2)c(=O)n(-c2cncc(F)c2C)c(=O)n3CCC#N)c(Cl)cc1F (single isomer, unassigned) [Example 1026]
2. COc1cc(-c2cc3c(s2)c(=O)n(-c2cncc4ccccc24)c(=O)n3CCC#N)c(Cl)cc1F [Example 632]

["3.08 nM", "6.13 nM"]
